system: MDA-MB-468 breast; assay: NCI tumour cell line growth inhibition, 48 h
ENDPOINT: TGI (µM)
Record the value in µM, omitting the unit from your answer.

Input: Return TGI measured with MDA-MB-468 breast given this molecule: COc1ccc2c(C3=C(c4cn(C)c5ccccc45)C(=O)NC3=O)cn(C)c2c1
Output: 10.2

Input: Query TGI on MDA-MB-468 breast for COc1cc(-c2nn(-c3ccc(NC(=O)c4ccc(Cl)c(C(F)(F)F)c4)cc3)cc2-c2ccncc2)ccc1Cl
Output: 16

Input: For the record COc1ccc(CN2[C@@H](C(=O)NCc3ccc(C(=O)NO)cc3)Cc3c([nH]c4ccccc34)[C@@H]2C2CC2)cc1 , what value of TGI is listed for MDA-MB-468 breast?
Output: 4.34

Input: Give the reported TGI for NC(=O)c1sc(-n2cnc3ccccc32)cc1OCc1ccccc1Br (system: MDA-MB-468 breast).
Output: 2.18

Input: Give the reported TGI for O=C1/C(=C/c2cccc([N+](=O)[O-])c2)COc2ccc(O)cc21 (system: MDA-MB-468 breast).
Output: 5

Input: Notebook: pull reported TGI for MDA-MB-468 breast, entry NC(=O)c1cccc2cn(-c3ccc([C@@H]4CCCNC4)cc3)nc12
Output: 18.9

Input: Lab request: please report TGI under test system MDA-MB-468 breast for Clc1ccc2c(NCCCCNc3nc(N4CCCCC4)nc4ccccc34)ccnc2c1
Output: 3.63

----------
system: HCT-15 colon; assay: NCI tumour cell line growth inhibition, 48 h
ENDPOINT: GI50

Input: Could you tell me which GI50 is on file for NC(=Nc1ccc(OCCCCCCCCn2cnnn2)cc1)c1ccccc1 ?
Output: 272 nM

Input: Any idea what GI50 was measured for O=c1[nH]c2ccccc2cc1CSc1ccc(Nc2nccc(-c3ccc(C(F)(F)F)cc3)n2)cc1 ?
Output: 2270 nM

Input: Any idea what GI50 was measured for COc1ccc(CN2[C@@H](C(=O)NCc3ccc(C(=O)NO)cc3)Cc3c([nH]c4ccccc34)[C@@H]2C2CC2)cc1 ?
Output: 3750 nM

Input: Request the reported GI50 associated with Cn1cc(-c2nc(N)nnc2-c2c[nH]c3ccccc23)c2cc(Br)cnc21
Output: 37.6 nM

----------
tested on: M14 melanoma; test: NCI tumour cell line growth inhibition, 48 h
ENDPOINT: TGI (µM)
Numbers only here, please. The scale is µM.

Input: Could you share which TGI value was measured for O=c1[nH]c2ccccc2cc1CSc1ccc(Nc2nccc(-c3ccc(C(F)(F)F)cc3)n2)cc1 ?
Output: 61.3

Input: Could you share which TGI value was measured for CN(C)c1nc(NCCNS(=O)(=O)c2ccc(C(=O)/C=C/c3ccc(C(F)(F)F)cc3)cc2)nc(N2CCOCC2)n1 ?
Output: 22.2

Input: # input compound: Cn1cc(-c2nc(N)nnc2-c2c[nH]c3ccccc23)c2cc(Br)cnc21 ; wanted: its TGI
Output: 2.06
